- Test system: 186277-243-T-J2-PDC complex spheroid growth;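 further: luminescent signal used as a stand-in for viable cell amount; spheroids exposed to compounds for seven days before the viability read; 100% = DMSO vehicle control wells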
- assay: Anticancer human tumor 186277-243-T-J2-PDC patient-derived colon adenocarcinoma cell line growth inhibition [AhR]
- recordedConditions: second compound 10 µM; first compound 0.1 µM; hits give low values

| compound | viability, T/C / % |
| --- | --- |
| CC(C)c1c(-c2ccccc2)nc2c(C#N)c[nH]n2c1=O + Cc1cncc(-c2nc(NCCc3c[nH]c4ccccc34)c3ncn(C(C)C)c3n2)c1 | 22.7 |
| Nc1ccn(C2OC(CO)C(O)C2(F)F)c(=O)n1 (stereo unspecified) + Cc1cncc(-c2nc(NCCc3c[nH]c4ccccc34)c3ncn(C(C)C)c3n2)c1 | 9.68 |
| O=C(C=Cc1cccc(S(=O)(=O)Nc2ccccc2)c1)NO + CC(CO)NC(=O)c1cc(-c2ccc(Cl)cc2)nn(-c2cnn(C)c2)c1=O | 58.5 |
| CC1(C)CCC(CN2CCN(c3ccc(C(=O)NS(=O)(=O)c4ccc(NCC5CCOCC5)c([N+](=O)[O-])c4)c(Oc4cnc5[nH]ccc5c4)c3)CC2)=C(c2ccc(Cl)cc2)C1 + Cc1cncc(-c2nc(NCCc3c[nH]c4ccccc34)c3ncn(C(C)C)c3n2)c1 | 81.6 |
| CC1COCCN1c1cc(C2(S(C)(=N)=O)CC2)nc(-c2ccnc3[nH]ccc23)n1 (stereo unspecified) + Cc1cncc(-c2nc(NCCc3c[nH]c4ccccc34)c3ncn(C(C)C)c3n2)c1 | 79 |
| CC[C@@]1(O)C(=O)OCc2c1cc1n(c2=O)Cc2cc3c(CN(C)C)c(O)ccc3nc2-1 + Cc1cncc(-c2nc(NCCc3c[nH]c4ccccc34)c3ncn(C(C)C)c3n2)c1 | 39 |
